Source of measurements: ChEMBL document CHEMBL4296182

System: Acinetobacter baumannii
Assay: Antibacterial activity against Acinetobacter baumannii ATCC 19606 (CO-ADD:GN_034); MIC in CAMBH media using NBS plates, by Resazurin F(560/590)
Format: functional
Settings: Concentration 20 uM, ASSAY_TEST Inhibition of Bacterial Growth, detection method Resazurin, Fluorescence (ex560/em590), MEDIA CAMHB, plate type 384well, CORNING #3640, time 18 hr
measurement_label: Inhibition (%)
Report only the number, with the unit % understood.

# value lookup — system Acinetobacter baumannii, readout Inhibition, item Nc1ccc(C(=O)c2cccs2)cn1
0

What about this molecule? O=C(Nc1ccc(Cl)c(Cl)c1)Nc1ccccc1O
0.1

What about this molecule? N#C/C(=C\c1c[nH]c2ccccc12)C(N)=O
12.56

What about this molecule? CN(C)C(=O)OCC1COc2ccccc2O1 (stereo not drawn)
-13.85

What about this molecule? O=C(Nc1ccc(Cl)c([N+](=O)[O-])c1)Nc1nc2ccccc2s1
0.46

What about this molecule? Oc1cc(-n2cccn2)c(O)cc1-n1cccn1
8.87

What about this molecule? O=S1(=O)CSCS(=O)(=O)C1
-2.62

What about this molecule? CSc1cccc(NC(=O)Nc2ccccc2C(N)=O)c1
10.06

What about this molecule? CC(=O)Nc1ccc(Cc2nc3c(=O)n(C)c(=O)n(C)c3[nH]2)cc1
-13.87

What about this molecule? CCNc1ccccc1C(=O)O
-10.34

What about this molecule? Cc1cc(=O)n2c3c(c4c(cc13)c(CN(C)C)cc(=O)n4C)OC2.Cl
19.85

What about this molecule? COc1ccc(C(=O)Oc2cccnc2O)cc1
16.28

What about this molecule? C[C@H](CCC(=O)O)[C@H]1CC[C@@]2(C)[C@@H]3C(=O)C[C@H]4C(C)(C)[C@@H](O)CC[C@]4(C)[C@H]3C(=O)C[C@]12C
-2.92
